From: the supplement of paper PMC6555819

- System: RARg:RXRa (NR concentration 270 nM, RXRa partner concentration 90 nM)
- PROCEDURE SUMMARY: PBM binding z-score (relative to random genomic background probes); higher = stronger binding; sequences stand for … in GC…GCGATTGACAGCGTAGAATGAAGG
Kind request: treat 1 as inclusive, so PBM binding z-score at 1 or higher is Met, anything lower is Not met.

Some solved entries appear below for comparison.
[[record]]
seq = "TAGCCTAGGTCATGGGACAGTATACCACGCGAAC"
measured_target = "RARg:RXRa (NR concentration 270 nM, RXRa partner concentration 90 nM)"
cat = "Met"

[[record]]
seq = "TCTATTAGTTGATTAGGACAACCGAAACAGCGGA"
measured_target = "RARg:RXRa (NR concentration 270 nM, RXRa partner concentration 90 nM)"
cat = "Not met"


Please indicate if the recorded PBM binding z-score for "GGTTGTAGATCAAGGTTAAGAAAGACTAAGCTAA" meets or exceeds 1.
Not met

---

Would you kindly list PBM binding z-score for each of these sequences?
- Test system: PPARg DBDmut IVT, anti-PPARg (DBD mutation: PPARg1 K132A/R137A, NR concentration 270 nM)
- PROCEDURE SUMMARY: PBM binding z-score (relative to random genomic background probes); higher = stronger binding; sequences stand for … in GC…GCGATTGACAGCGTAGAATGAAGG
Numbers only.

Worked cases, answers included:
[[record]]
seq = "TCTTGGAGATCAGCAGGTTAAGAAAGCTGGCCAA"
measured_result = -0.467

[[record]]
seq = "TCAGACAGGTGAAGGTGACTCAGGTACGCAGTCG"
measured_result = 0.0936

[[record]]
seq = "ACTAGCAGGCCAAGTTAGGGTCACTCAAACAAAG"
measured_result = -0.603


# return PBM binding z-score for each item in the list
1. ACTATTAGTTGACTTAGGGCAACAGATACGACGC
2. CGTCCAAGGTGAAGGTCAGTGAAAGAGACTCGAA
3. TCATATAGGTAAAGGTGGAAGTCGAACGATATGA
4. TCTGCTAGGTCAGTTGGTCATCTAACGAGCTGCC

1. 1.49
2. -0.465
3. 1.48
4. 0.261

Field: PBM binding z-score. Fill in for each record below.
1. CCTACTGGGCCATCAGGTCATTAATATCAACGTT
2. TCTCGGAGGACACGAAAGGTCATAGCTCGACATC
3. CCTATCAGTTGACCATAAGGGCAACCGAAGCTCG

[0.269, 0.408, 0.0861]

I'm hoping you can list PBM binding z-score for every sequence here, please.
1. CCTATTAGTTGACCATAAGGGTAACCGAAGCTCG
2. CCTACTGGGCCAAGGTCATGGATCAGTCAAAGCA
3. ATATGTAGGTTAAGGGTCAGTCAGGTTGGTTCGC
4. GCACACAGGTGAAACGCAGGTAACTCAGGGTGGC
5. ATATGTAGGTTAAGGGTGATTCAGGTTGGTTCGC

[1.15, -0.00696, 2.22, -0.23, 1.38]

Provide PBM binding z-score values for the following items, in order.
1. AATACAGGGTCACTAGGCCAGCGTAGGTACGAAT
2. TAGCCTAGTTCATTGGGCCAGTATAGTACGCATC
3. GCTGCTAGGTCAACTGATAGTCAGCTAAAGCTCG
4. CGAACTAGGTCAAGGACCGTGAATCTCCGCACGC

[1, -0.291, -1.36, 0.945]

Please state PBM binding z-score for every sequence in the list that follows.
1. TCTTCTAGATCAACAGGAGGTTAAGAAAGATCGA
2. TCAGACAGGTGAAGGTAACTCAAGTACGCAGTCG

1. 1.8
2. -0.232
